# tgt: recombinant PI3K δ enzyme (Homo sapiens (Human), UniProt O00329)
# Sequence (O00329 whole entry, species assumed): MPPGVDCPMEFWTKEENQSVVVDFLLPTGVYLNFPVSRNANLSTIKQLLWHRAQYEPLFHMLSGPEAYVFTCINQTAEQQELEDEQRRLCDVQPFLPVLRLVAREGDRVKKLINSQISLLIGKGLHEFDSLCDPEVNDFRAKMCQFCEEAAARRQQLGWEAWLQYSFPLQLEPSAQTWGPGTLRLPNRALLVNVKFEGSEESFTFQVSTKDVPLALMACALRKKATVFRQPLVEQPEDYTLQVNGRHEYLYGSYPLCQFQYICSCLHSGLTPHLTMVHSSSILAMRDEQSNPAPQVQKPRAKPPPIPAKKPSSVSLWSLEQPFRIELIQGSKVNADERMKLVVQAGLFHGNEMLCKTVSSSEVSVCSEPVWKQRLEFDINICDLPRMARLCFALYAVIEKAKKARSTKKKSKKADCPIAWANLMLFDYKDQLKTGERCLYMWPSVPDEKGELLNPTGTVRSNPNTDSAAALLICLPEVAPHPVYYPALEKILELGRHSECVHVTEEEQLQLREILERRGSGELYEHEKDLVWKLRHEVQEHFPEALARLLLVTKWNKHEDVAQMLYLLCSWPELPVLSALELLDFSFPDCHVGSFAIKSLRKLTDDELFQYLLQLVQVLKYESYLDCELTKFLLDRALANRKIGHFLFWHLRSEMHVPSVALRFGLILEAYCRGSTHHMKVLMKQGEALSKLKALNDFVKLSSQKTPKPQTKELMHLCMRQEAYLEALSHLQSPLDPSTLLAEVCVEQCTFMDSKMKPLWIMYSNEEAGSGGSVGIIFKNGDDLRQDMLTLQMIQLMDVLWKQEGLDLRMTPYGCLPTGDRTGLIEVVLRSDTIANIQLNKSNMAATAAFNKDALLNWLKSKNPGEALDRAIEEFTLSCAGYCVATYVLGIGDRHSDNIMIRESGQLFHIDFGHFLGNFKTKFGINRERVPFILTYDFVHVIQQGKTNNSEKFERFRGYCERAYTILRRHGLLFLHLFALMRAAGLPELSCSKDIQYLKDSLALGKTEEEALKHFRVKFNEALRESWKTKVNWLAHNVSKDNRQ
# Sequence (P27986 whole entry partner, species assumed): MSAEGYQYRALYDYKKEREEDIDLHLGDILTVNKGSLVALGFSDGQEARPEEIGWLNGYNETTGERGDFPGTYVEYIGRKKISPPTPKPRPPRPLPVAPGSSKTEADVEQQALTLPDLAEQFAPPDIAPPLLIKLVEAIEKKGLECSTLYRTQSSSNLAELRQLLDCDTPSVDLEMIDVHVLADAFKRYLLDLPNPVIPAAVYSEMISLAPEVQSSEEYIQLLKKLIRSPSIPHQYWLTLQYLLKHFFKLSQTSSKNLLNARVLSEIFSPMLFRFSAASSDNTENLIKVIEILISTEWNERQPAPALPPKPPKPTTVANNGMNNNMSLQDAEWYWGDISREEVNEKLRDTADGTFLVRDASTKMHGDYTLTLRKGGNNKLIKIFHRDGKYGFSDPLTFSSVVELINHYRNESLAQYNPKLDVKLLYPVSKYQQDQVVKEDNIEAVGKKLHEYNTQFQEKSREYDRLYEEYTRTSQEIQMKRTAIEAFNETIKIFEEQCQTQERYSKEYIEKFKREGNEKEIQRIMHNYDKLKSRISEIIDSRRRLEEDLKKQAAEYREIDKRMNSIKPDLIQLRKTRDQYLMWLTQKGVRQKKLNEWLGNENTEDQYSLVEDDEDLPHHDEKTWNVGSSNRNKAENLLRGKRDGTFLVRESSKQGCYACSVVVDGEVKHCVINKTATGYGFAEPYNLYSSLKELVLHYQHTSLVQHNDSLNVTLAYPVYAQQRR
# experimentalProtocol: In vitro enzyme assay (Kinase-Glo luminescent kinase assay), PI3Kδ
# Type: biochemical
# Description: The Kinase-Glo luminescent kinase assay kit (from Promega) was used to measure kinase activity. In this assay, amount of ATP remaining in solution following a kinase reaction is measured. […] At the end of incubation period the equal volume of Kinase-Glo plus (Promega, V3772), was added per well and the luminescence was measured after incubating for 10 minutes at room temperature in dark. Results were calculated by measuring the luminescence units of test samples to blanks containing no enzyme. […]
// NB: equality with 70 nM counts as Not met; only IC50 strictly below is Met

Solved entries (count: 2):
>>> df
                          chemicalstructure                                       tgt  qualitativelabel
0  Cc1nn(C)cc1-c1nc2[nH]c(C(=O)N3CCC(N4CCOCC4)CC3)nc2c(N2CCOCC2)c1Cl  recombinant PI3K δ enzyme (Homo sapiens (Human), UniProt O00329)               Met
1  CN(C)C1CCN(C(=O)c2nc3c(N4CCOCC4)c(F)c(-c4cnn(C)c4)nc3[nH]2)CC1  recombinant PI3K δ enzyme (Homo sapiens (Human), UniProt O00329)               Met

# strict comparison: is reported IC50 < 70 nM? input = `CC(=O)NC1CCN(C(=O)c2nc3c(N4CCOCC4)nc(-c4cnn(C)c4)nc3[nH]2)CC1`
Not met

Consider `Cn1cc(-c2nc(N3CCOCC3)c3nc(C(=O)N4CCNC(=O)C4)[nH]c3n2)cn1` . Does its IC50 lie strictly below 70 nM?
Not met

Threshold test, IC50 < 70 nM: `CN(C)C1CCN(C(=O)c2nc3c(N4CCOCC4)cc(-c4cnn(C)c4)nc3n2C)CC1`
Met
